# PROCEDURE TEXT: amyloid nucleation score (Sup35N fusion, yeast selection) (log enrichment); library NNK1; higher = more nucleation; inactive = no reads after selection;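 also: zero at mode of non-aggregating sequences after 7 days selection at 30°C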
Classify by measured amyloid nucleation score: T if it is equal to or exceeds -0.2, F if it is smaller.

Q) In plain terms: is recorded amyloid nucleation score at least -0.2 for `MPPMYGRGRPMNKIGVWDYA` ?
A) T

Q) In plain terms: is recorded amyloid nucleation score at least -0.2 for `EGLTNMWGGSYYNGLTFMGQ` ?
A) F

Q) In plain terms: is recorded amyloid nucleation score at least -0.2 for `VILSYCLIFLK` ?
A) F

Q) In plain terms: is recorded amyloid nucleation score at least -0.2 for `AFNGVSNLEWL` ?
A) T

Q) In plain terms: is recorded amyloid nucleation score at least -0.2 for `VTLAQKLLDF` ?
A) F

Q) In plain terms: is recorded amyloid nucleation score at least -0.2 for `YLALVSANNASKKAVVKSTE` ?
A) T

Q) In plain terms: is recorded amyloid nucleation score at least -0.2 for `CNVGLKVYLADISSGSVCYL` ?
A) T

Q) In plain terms: is recorded amyloid nucleation score at least -0.2 for `MEYTYVQTSKYKHERNATWC` ?
A) T

Q) In plain terms: is recorded amyloid nucleation score at least -0.2 for `VWLCLRIVVSGNNRACFICV` ?
A) T

Q) In plain terms: is recorded amyloid nucleation score at least -0.2 for `GSLWFRLGEFARTNFFNSVF` ?
A) T

Q) In plain terms: is recorded amyloid nucleation score at least -0.2 for `YVEQYLWDSDWSSGI` ?
A) T

Q) In plain terms: is recorded amyloid nucleation score at least -0.2 for `TMRSNRLFRICFCLGKKYWL` ?
A) F

Q) In plain terms: is recorded amyloid nucleation score at least -0.2 for `ASKKNIF` ?
A) F

Q) In plain terms: is recorded amyloid nucleation score at least -0.2 for `GGHFWWNTGQARVNWTIRLE` ?
A) T

Q) In plain terms: is recorded amyloid nucleation score at least -0.2 for `FAKLYLKSISVLLMHTDWVF` ?
A) T

Q) In plain terms: is recorded amyloid nucleation score at least -0.2 for `RCGFSLNFC` ?
A) T

* * *

# PROCEDURE TEXT: amyloid nucleation score (Sup35N fusion, yeast selection) (log enrichment); library NNK2; higher = more nucleation; inactive = no reads after selection
Classify by measured amyloid nucleation score: YES if it is equal to or exceeds 0.4, NO if it is smaller.

Q) In plain terms: is recorded amyloid nucleation score at least 0.4 for `HWDLIGGVL` ?
A) NO

Q) In plain terms: is recorded amyloid nucleation score at least 0.4 for `YYQEHQTRLWIWSQHGLNAI` ?
A) YES

Q) In plain terms: is recorded amyloid nucleation score at least 0.4 for `AVEQWQ` ?
A) YES

Q) In plain terms: is recorded amyloid nucleation score at least 0.4 for `LEDGRTSLGMTQRYSIRNIC` ?
A) NO

Q) In plain terms: is recorded amyloid nucleation score at least 0.4 for `DFRCADCLKINFSIVQSK` ?
A) YES

* * *

# PROCEDURE TEXT: amyloid nucleation score (Sup35N fusion, yeast selection) (log enrichment); library NNK2; higher = more nucleation; inactive = no reads after selection
Record form. Attribute: amyloid nucleation score. Fill in for each entry.
Just the number, please.

Short answer for `FCISFRTRSDPRSHSSGAIE` : amyloid nucleation score was 0.498

Short answer for `SWTCFTLVVRRTAGYWVWSA` : amyloid nucleation score was 0.331

Short answer for `WTYPLC` : amyloid nucleation score was -0.744

Short answer for `PLRVRNNGGTVDKFLLRVFE` : amyloid nucleation score was 0.489

Short answer for `RTVDELTRRWWSKRRMGMSW` : amyloid nucleation score was 2.03

Short answer for `SVLIAQLDAAYGISVVRSPG` : amyloid nucleation score was 0.264

Short answer for `LAKWGKLCCVLYQYPVSLGE` : amyloid nucleation score was 0.71

Short answer for `QLVPRHNGTAKGCSGPLTRV` : amyloid nucleation score was 0.402
